Reported pEC50 is given for each of the following compounds.
# Tested on: SARS-CoV-2
# experimental.protocol: microbe, parasite or virus in culture
# Assay type: cell-based
# assay.setup: Severe acute respiratory syndrome coronavirus 2, Vero C1008; Vero E6, moi 0.05, 48 hours, TCID50
pEC50: −log10 of the molar value.
endpoint: pEC50

In [3]: df
Out[3]:
                                   compound  reported_result
0  COc1cc(C)c2c(Oc3cccc(C(F)(F)F)c3)c(OC)cc(NC(C)CCCN)c2n1 (centres unmarked) [Tafenoquine]             5.59
1  CCN(CCO)CCCC(C)Nc1ccnc2cc(Cl)ccc12 (centres unmarked) [Hydroxychloroquine]             4.98

FYI, the data here is from patent US12691107B2.
